experiment: Pharmacokinetic analysis of plasma in SD rats; format: in vivo; settings: female, Sprague-Dawley, rat, iv, i.v. 14 mg/kg, rats
quantity.measured: AUC(0-inf) (ng·h/mL)

* O=C(SCCCCCCSCCCC(F)(F)F)c1cccc(O)c1O | 2520

====

assay: Pharmacokinetic analysis of plasma in SD rats; format: in vivo; details: female, Sprague-Dawley, rat, po, 14 mg/kg, oral, as restated in Discussion, read-out: half-life (converted)
quantity.measured: half-life (h)

- O=C(SCCCCCCSCCCC(F)(F)F)c1cccc(O)c1O [TBG096]: 1.85

====

experiment: Pharmacokinetic analysis of plasma in SD rats; format: in vivo; settings: female, Sprague-Dawley, rat, iv, i.v. 14 mg/kg, rats
quantity.measured: Tmax (min)

- O=C(SCCCCCCSCCCC(F)(F)F)c1cccc(O)c1O: 5

The reported measurements were obtained from paper PMC11943016.
